Numbers sourced from patent US20090048164A1.

# systemName: mouse Mcl-1 with truncations of 151 amino acid residues at its N-terminus and 23 residues at its C-terminus (mouse) (UniProt P97287)
# Sequence (P97287 152-308): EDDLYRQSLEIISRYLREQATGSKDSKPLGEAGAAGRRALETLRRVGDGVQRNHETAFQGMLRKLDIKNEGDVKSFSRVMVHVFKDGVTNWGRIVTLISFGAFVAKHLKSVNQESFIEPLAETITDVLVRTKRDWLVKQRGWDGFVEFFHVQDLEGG
# assayName: competition phage ELISA
No end group written: not given here.
recordedEndpoint: pIC50
Here pIC50 is given on a logarithmic scale as minus log10 of the concentration in mol/L.

Name the recorded pIC50 for RAELPPEFAAQLRKIGDKVACTWSAP-{GGGT-g3(249-406)} (not fully specified (N-terminus)) [mNoxaA BH3 Y20A, phage-displayed] .
7.49

Name the recorded pIC50 for PSSTMGQVERQLAIIGDDINRRYDSE [Bak BH3 G9E, phage-displayed] .
6.36

Name the recorded pIC50 for QEDIIANIARHLAQVGDSMDRSIPPG [Bid BH3 R6A, phage-displayed] .
7.06

Name the recorded pIC50 for PSSTMGQVGRQLEIIGDDINRRYDSE [Bak BH3 A13E, phage-displayed] .
6.45

Name the recorded pIC50 for PSSTMGQVGRQLAIIGDDANRRYDSE [Bak BH3 I19A, phage-displayed] .
6.73

Name the recorded pIC50 for QEDIIRNIARHLAQAGDSMDRSIPPG [Bid BH3 V15A, phage-displayed] .
6.61
